- assay explanation: Quantitative High-Throughput drug screen in 47 multiple myeloma cell lines against the NCATS MIPE library collection: AMO1_DSMZ cell viability assay (AID 1918927; also: nearly all actives have a fitted effect of over 30% in size; also: potency is read from the fitted curve at half-maximal effect)
- protocol conditions: AMO1 myeloma cells viability, CellTiter-Glo ATP luminescence, 48 h; series mostly up to 45.8 µM
Inconclusive results are not listed. Activity calls are given as the source filed them. Calls follow the shape of the dose curve; as a rule, active = well fitted cell-killing curve with a large enough effect; inconclusive = small, poorly fitted or top-dose-only effect, or effect the other way; inactive = no such curve, though single readings can be large or run the other way. Non-standard residues stand in square brackets, D forms with d. Residues, ends and D or L forms follow the SMILES beside them. *: point of attachment. Nva = CCC[C@H](N)C(=O)O; Cbz = O=C(OCc1ccccc1)*
experimental readout: Potency

Before answering, review these 5 worked examples.
compound	Potency
Cn1cc(C[C@@H](N)C(=O)O)c2ccccc21	inactive
COc1cc(C)c(C=CC(C)=CC=CC(C)=CC(=O)O)c(C)c1C	inactive
Cc1cnn(C)c1C(=O)Nc1cc(Nc2ccc3c(C=Cc4ccccn4)n[nH]c3c2)ccc1F	9350 nM (active)
Nc1ccn(C[C@@H](CO)OCP(=O)(O)O)c(=O)n1	inactive
COc1cc([C@@H]2c3cc4c(cc3[C@@H](O[C@@H]3O[C@@H]5CO[C@@H](c6cccs6)O[C@@H]5[C@H](O)[C@@H]3O)[C@H]3COC(=O)[C@H]23)OCO4)cc(OC)c1O	590 nM (active)

Ask | What does the data say about its Potency? Entry: "COc1cc(C=CC(=O)CC(=O)C=Cc2ccc(O)c(OC)c2)ccc1O"
Reply | 5400 nM (active)

Ask | What does the data say about its Potency? Entry: "COc1ccc(S(=O)(=O)Nc2cc(-c3c(O)ccc4ccccc34)c(O)c3ccccc23)cc1"
Reply | 14800 nM (active)

Ask | What does the data say about its Potency? Entry: "Cc1cc(Nc2ncc3c(n2)N(C)C(=O)N(c2cc(NC(=O)c4cccc(C(F)(F)F)c4)ccc2C)C3)n(C)n1"
Reply | 833 nM (active)

Ask | What does the data say about its Potency? Entry: "CCNC(=O)c1cc2c(-c3cc(OCCN4CCCC4)c(Cl)cc3Cl)nc(N)nc2s1"
Reply | 935 nM (active)

Ask | What does the data say about its Potency? Entry: CCC[C@@H](C=O)NC(=O)[C@H](CC(C)C)NC(=O)[C@H](CC(C)C)NC(=O)OCc1ccccc1 (Cbz-Leu-Leu-[Nva]-aldehyde)
Reply | 296 nM (active)

Ask | What does the data say about its Potency? Entry: "Cc1cn([C@@H]2O[C@H](CO)[C@@H](O)[C@H]2F)c(=O)[nH]c1=O"
Reply | inactive

Ask | What does the data say about its Potency? Entry: "COC(=O)C=CC(=O)OC"
Reply | inactive

---

- assay explanation: Quantitative High-Throughput drug screen in 47 multiple myeloma cell lines against the NCATS MIPE library collection: VP6_DJ cell viability assay (AID 1919867); also: nearly all actives have a fitted effect of over 40% in size
- protocol conditions: ATP luminescence, 48 h; series mostly up to 45.8 µM
Records with an inconclusive call do not appear. Activity calls are given as the source filed them. Calls follow the shape of the dose curve; as a rule, active = well fitted cell-killing curve with a large enough effect; inconclusive = small, poorly fitted or top-dose-only effect, or effect the other way; inactive = no such curve, though single readings can be large or run the other way.
Respond using exactly one of the listed classes: true (1) (active), false (0) (inactive)

Ask | Can you look up the reported call for CC1=C(C(=O)Nc2cc3cn[nH]c3cc2F)C(c2ccc(Cl)cc2F)N=C(c2ccnc(Cl)c2)N1 (stereo not drawn) for me?
Reply | true (1)

Ask | Can you look up the reported call for "COC[C@H](NC(=O)c1cnc(C)s1)C(=O)N[C@@H](COC)C(=O)N[C@@H](Cc1ccccc1)C(=O)[C@@]1(C)CO1" for me?
Reply | true (1)

Ask | Can you look up the reported call for "CNC(=O)c1ccc(Nc2cc(Nc3ccccc3S(=O)(=O)C(C)C)c3cc[nH]c3n2)nc1" for me?
Reply | true (1)

Ask | Can you look up the reported call for "CCCCCCCCCCCCc1ccc(S(=O)(=O)Nc2nncs2)cc1" for me?
Reply | false (0)

Ask | Can you look up the reported call for CC(=O)NC(CS)C(=O)O (stereo not drawn) for me?
Reply | false (0)

Ask | Can you look up the reported call for "O=C1c2c(O)cccc2[C@@H]([C@@H]2O[C@H](CO)[C@@H](O)[C@H](O)[C@H]2O)c2cc(CO)cc(O)c21" for me?
Reply | false (0)

Ask | Can you look up the reported call for "Cn1cc(CNCC2CCN(c3ncc(C(=O)NO)cn3)CC2)c2ccccc21" for me?
Reply | true (1)

Ask | Can you look up the reported call for "Cn1cnc(=N)c2[nH]cnc21" for me?
Reply | true (1)

Ask | Can you look up the reported call for "CC(C=CC=C(C)C=CC1=C(C)CCCC1(C)C)=CC=CC=C(C)C=CC=C(C)C=CC1=C(C)CCCC1(C)C" for me?
Reply | true (1)

Ask | Can you look up the reported call for "COc1ccc(Nc2nccc(NCCO)n2)cc1" for me?
Reply | true (1)

Ask | Can you look up the reported call for "CN[C@@H]1C[C@H]2O[C@@](C)([C@H]1OC)n1c3ccccc3c3c4c(c5c6ccccc6n2c5c31)C(=O)N[C@H]4O" for me?
Reply | true (1)

Ask | Can you look up the reported call for "Cc1cnn(C)c1C(=O)Nc1cc(Nc2ccc3c(C=Cc4ccccn4)n[nH]c3c2)ccc1F" for me?
Reply | true (1)

Ask | Can you look up the reported call for C[C@H]1O[C@H](O[C@H]2[C@H](O)[C@@H](O)[C@@H](O[C@H]3[C@H](O)[C@@H](O)C(O)O[C@H]3CO)O[C@H]2CO)[C@H](O)[C@@H](O)[C@H]1N[C@H]1C=C(CO)[C@@H](O)[C@H](O)[C@@H]1O (stereo partly drawn) for me?
Reply | false (0)

Ask | Can you look up the reported call for "Cc1cnc(NC(=O)Nc2cc(Br)c(C)cc2OC[C@@H]2CNCCO2)cn1" for me?
Reply | true (1)

Ask | Can you look up the reported call for "C#C[C@]1(O)CC[C@@H]2[C@@H]3CCc4cc(O)ccc4[C@H]3CC[C@@]21C" for me?
Reply | true (1)

Ask | Can you look up the reported call for "CC(=O)NCC(=O)N1[C@H]2CC[C@H]1c1cc(Nc3ncc(C(F)(F)F)c(NC4CCC4)n3)ccc12" for me?
Reply | true (1)

Ask | Can you look up the reported call for "CCc1c(O)cc(O)c(C(=O)c2ccc(OCCN3CCOCC3)c(OC)c2)c1CC(=O)N(CCOC)CCOC" for me?
Reply | true (1)

Ask | Can you look up the reported call for "Oc1ccc(-c2ccc(-c3cc(Nc4cccc(CNC5CC5)c4)n[nH]3)cc2)c(O)c1" for me?
Reply | true (1)

---

- assay explanation: Quantitative High-Throughput drug screen in 47 multiple myeloma cell lines against the NCATS MIPE library collection: JJN3_DSMZ cell viability assay (AID 1918966; also: nearly all actives have a fitted effect of over 50% in size)
- protocol conditions: JJN3 myeloma cells viability, CellTiter-Glo ATP, 48 h; series mostly up to 45.8 µM
Records with an inconclusive call do not appear. Active and inactive are the calls of the source. Calls follow the shape of the dose curve; as a rule, active = well fitted cell-killing curve with a large enough effect; inconclusive = small, poorly fitted or top-dose-only effect, or effect the other way; inactive = no such curve, though single readings can be large or run the other way.
Respond using exactly one of the listed classes: active, inactive

Ask | Can you look up the reported call for CC(=O)SCC(Cc1ccccc1)C(=O)NCC(=O)OCc1ccccc1 (centres undefined) for me?
Reply | active

Ask | Can you look up the reported call for CC(=O)O[C@@]12CO[C@H]1C[C@H](O)[C@@]1(C)C(=O)[C@H](O)C3=C(C)[C@@H](OC(=O)C(O)[C@@H](NC(=O)OC(C)(C)C)c4ccccc4)C[C@@](O)([C@@H](OC(=O)c4ccccc4)[C@@H]21)C3(C)C (some centres undefined) for me?
Reply | inactive

Ask | Can you look up the reported call for "C[C@H](NCc1ccc2c(c1)nc(NC(=O)c1ccc(-c3cn[nH]c3)s1)n2CCc1ccccc1)C(C)(C)C" for me?
Reply | active

Ask | Can you look up the reported call for "Cn1c(Nc2ccc(C(F)(F)F)cc2)nc2cc(Oc3ccnc(-c4ncc(C(F)(F)F)[nH]4)c3)ccc21" for me?
Reply | active

Ask | Can you look up the reported call for "CC(C)(N)c1ccc(-c2nc3ccccc3nc2-c2ccccc2)cc1" for me?
Reply | active

Ask | Can you look up the reported call for "CCCNS(=O)(=O)Nc1ncnc(OCCOc2ncc(Br)cn2)c1-c1ccc(Br)cc1" for me?
Reply | inactive

Ask | Can you look up the reported call for "O=C(Nc1cc2cc[nH]c2cn1)c1ccccc1" for me?
Reply | active

Ask | Can you look up the reported call for OCCNC1CCCc2c1[nH]c1ccc(-c3ccccc3)cc21 (centres undefined) for me?
Reply | active

Ask | Can you look up the reported call for CCCNC(=O)[C@H]1O[C@H]1C(=O)N[C@H](C(=O)N1CCC[C@@H]1C(=O)OC)C(C)CC (some centres undefined) for me?
Reply | active

Ask | Can you look up the reported call for "CCNC(=O)c1cc2c(-c3cc(OCCN4CCCC4)c(Cl)cc3Cl)nc(N)nc2s1" for me?
Reply | active

Ask | Can you look up the reported call for "CC(C)NC[C@@H](C(=O)N1CCN(c2ncnc3c2[C@H](C)C[C@H]3O)CC1)c1ccc(Cl)cc1" for me?
Reply | active

Ask | Can you look up the reported call for "NC(=O)Nc1sc(-c2ccc(F)cc2)cc1C(N)=O" for me?
Reply | active

Ask | Can you look up the reported call for "O=C(C=CC#Cc1cccc(NS(=O)(=O)c2ccccc2)c1)NO" for me?
Reply | active

Ask | Can you look up the reported call for CCCCCCCCCCCC(CC1OC(=O)C1CCCCCC)OC(=O)C(CC(C)C)NC=O (centres undefined) for me?
Reply | active

Ask | Can you look up the reported call for Nc1nc(=O)n([C@H]2CSC(CO)O2)cc1F (some centres undefined) for me?
Reply | inactive

Ask | Can you look up the reported call for CC(C)C[C@H](NC(=O)CNC(=O)c1cc(Cl)ccc1Cl)B1OC(=O)CC(CC(=O)O)(C(=O)O)O1 (some centres undefined) for me?
Reply | active

Ask | Can you look up the reported call for "Cc1ccc2nc(NCCN)c3ncc(C)n3c2c1" for me?
Reply | active

Ask | Can you look up the reported call for "CC(C)(O)Cn1c(NC(=O)c2ccc(-c3cn[nH]c3)s2)nc2cc(CN3CCOCC3)ccc21" for me?
Reply | active

Ask | Can you look up the reported call for "Cc1cc(Nc2ncc3c(n2)N(C)C(=O)N(c2cc(NC(=O)c4cccc(C(F)(F)F)c4)ccc2C)C3)n(C)n1" for me?
Reply | active
